Reference source: patent US20040266766A1

Tested on: Caco-2 cell monolayers
Test Method Notes: Caco-assay: transport across Caco-2 cell monolayers
Type: in vitro ADME, human
Condition Parameters: 10 μg/ml apical, four hours; first value column
Procedure: Transport of the compounds WX-508, WXC-316, WXC-318, WXC-324, WXC-340, WX-532, WX-538, WX-550 and WX-582 across Caco-2 cell monolayers was investigated. In this experiment the bioavailability of the said compounds after oral administration was assessed. […] The transepithelial electric resistance (TEER) is measured before and after equilibration using a Milicell ERS meter which was connected to a pair of electrodes in order to ensure the integrity of the monolayers formed on the filters. […]
Counter-ions that a name gives are not always drawn.
Measured Quantity: % amount in the basolateral compartment (%)

For orientation, consider the following solved cases.
> print(dat)
                                   compound                        measured.quantity  quantitative.readout
1  C[C@H](NC(=O)C(CO)NS(=O)(=O)Cc1ccccc1)C(=O)NCc1ccc(NC(=N)N)cc1 (stereo partly drawn) [WX-532, hydrochloride]  % amount in the basolateral compartment                     0
2  N=C(N)Nc1ccc(CNC(=O)[C@H](CCc2ccccc2)NC(=O)C(CO)NS(=O)(=O)Cc2ccccc2)cc1 (stereo partly drawn) [WX-550, hydrochloride]  % amount in the basolateral compartment                     0
3  N=C(N)Nc1ccc(CNC(=O)CNC(=O)[C@@H](CO)NS(=O)(=O)Cc2ccccc2)cc1 [WX-508, hydrochloride]  % amount in the basolateral compartment                   0.2
4  N=C(N)Nc1ccc(CNC(=O)CNC(=O)C(CO)NS(=O)(=O)Cc2cccc(Cl)c2)cc1 (stereo not drawn) [WX-C318, hydrochloride]  % amount in the basolateral compartment                   0.4
5  N=C(N)Nc1ccc(CNC(=O)CNC(=O)C(CO)NS(=O)(=O)Cc2cccc([N+](=O)[O-])c2)cc1 (stereo not drawn) [WX-C316, hydrochloride]  % amount in the basolateral compartment                   0.2

[I] N=C(N)Nc1ccc(CNC(=O)CNC(=O)C(CO)NS(=O)(=O)Cc2ccc(Cl)cc2)cc1 (stereo not drawn) [WX-C340, hydrochloride]
[II] N=C(N)Nc1ccc(CNC(=O)CNC(=O)C(CO)NC(=O)Nc2cccc(C(=O)O)c2)cc1 (stereo not drawn) [WX-C324, hydrochloride]
[III] CN(CC(=O)NCc1ccc(NC(=N)N)cc1)C(=O)C(CO)NS(=O)(=O)Cc1ccccc1 (stereo not drawn) [WX-538]
[IV] C[C@@H](C(=O)NCc1ccc(NC(=N)N)cc1)N(C)C(=O)[C@@H](CO)NS(=O)(=O)Cc1ccc(Cl)cc1 [WX-582]
Hey, quick one: sort these by % amount in the basolateral compartment, largest value first please. Your task in answering is to list the labels in the requested order.
I, IV, III, II
(I: 2.4%, IV: 0.4%, III: 0.2%, II: 0.1%)
